# Kd listing for each entry below
- system-under-test: His-tagged AGO2 recombinant protein (Homo sapiens)
- Construct: made in house; host or cells: High Five insect cells (baculovirus, Bac-To-Bac; virus made in Sf9)
- Sequence (Q9UKV8 whole entry): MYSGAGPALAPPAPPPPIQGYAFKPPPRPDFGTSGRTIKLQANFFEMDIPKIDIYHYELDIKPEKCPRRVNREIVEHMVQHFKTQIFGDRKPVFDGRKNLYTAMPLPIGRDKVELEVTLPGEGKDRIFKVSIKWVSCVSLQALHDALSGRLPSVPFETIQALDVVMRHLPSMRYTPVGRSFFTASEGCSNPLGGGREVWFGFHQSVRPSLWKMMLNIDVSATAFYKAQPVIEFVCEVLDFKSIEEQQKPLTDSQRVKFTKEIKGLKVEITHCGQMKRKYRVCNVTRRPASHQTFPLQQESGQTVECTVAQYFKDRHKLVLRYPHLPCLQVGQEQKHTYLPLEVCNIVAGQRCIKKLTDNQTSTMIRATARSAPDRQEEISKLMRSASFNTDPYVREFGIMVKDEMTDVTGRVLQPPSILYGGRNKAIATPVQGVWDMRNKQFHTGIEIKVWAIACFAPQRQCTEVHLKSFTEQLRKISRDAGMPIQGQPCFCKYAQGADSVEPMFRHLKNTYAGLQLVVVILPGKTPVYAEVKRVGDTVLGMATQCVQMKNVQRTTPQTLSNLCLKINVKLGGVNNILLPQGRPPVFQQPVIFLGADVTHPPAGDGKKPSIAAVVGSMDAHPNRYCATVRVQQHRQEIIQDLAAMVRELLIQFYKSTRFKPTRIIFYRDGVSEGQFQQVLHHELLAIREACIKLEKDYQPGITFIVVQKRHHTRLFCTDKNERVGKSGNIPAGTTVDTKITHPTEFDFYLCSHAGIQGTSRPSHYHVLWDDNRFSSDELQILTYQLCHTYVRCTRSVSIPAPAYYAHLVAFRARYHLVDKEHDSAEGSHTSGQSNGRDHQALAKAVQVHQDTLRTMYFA
- assay: Affinity measurement by surface plasmon resonance (SPR)
- Assay type: binding
- setup-conditions: AGO2 immobilized on CM5 chip; peptide serial dilution 625 to 10000 nM; Langmuir 1:1 model; read-out: equilibrium dissociation constant (KD)
No end group written: not given here.
Kindly provide the numeric value in µM only, without the unit symbol.

> print(dat)
                        polymer.sequence  quantity.measured  test.result
1  YQFPEFRVERTPLPSGRKKRRQRRRPPQ [TAT-11]                 Kd         3.33

Moving on to another sequence below.
Q: Entry HSLGGPLIATAFTNGGRKKRRQRRRPPQ [TAT-26] has what Kd?
A: 4.63
